Give measured switch fluorescence ratio for each item. Keep answers brief.
Test system: ATP;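 further: ATP exposure 15 min at 22 °C before imaging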
Assay: switch fluorescence ratio, 500 uM ATP over buffer (Cy3 cluster intensity, sum of 5 cycles each) (fold (ratio)); higher = stronger signal-on switching upon ATP binding; sequences stand for … in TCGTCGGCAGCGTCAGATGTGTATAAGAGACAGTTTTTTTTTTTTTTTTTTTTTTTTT…TC
Conditions: aptamer strand: ATP DNA aptamer (quencher-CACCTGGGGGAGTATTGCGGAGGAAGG + anchor), 100 nM annealed; ATP concentration: 500 uM
One number for each entry.

>  <sequence chain>
TTTTGGTTAT

>  <switch fluorescence ratio>
1.01

$$$$
>  <sequence chain>
CGATAACGTC

>  <switch fluorescence ratio>
0.992

$$$$
>  <sequence chain>
GAAGCGACTC

>  <switch fluorescence ratio>
2.42

$$$$

Please give switch fluorescence ratio for each item listed below.
1. GCATGGGGGG
2. TTATATCAGA

stdout:
1.02
1.02

I have 4 sequences here; please give me switch fluorescence ratio for each one.
1. TGTGGTTAGC
2. CTTTATGGGA
3. AGCATTGGTT
4. ACCGTTGGGG

stdout:
1: 1.01; 2: 0.988; 3: 1.02; 4: 1.04

Hey, can you go through the list below and give me switch fluorescence ratio for every item?
1. GAGTCAGTAT
2. TTAATCTACT
3. ATATAATAGG

stdout:
1.03
1.01
0.978

Required: switch fluorescence ratio, one value per sequence below.
1. ACCGGGCGCC
2. GGCGCTTTGT

stdout:
0.967
0.979

* * *

Tested on: ATP;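 further: ATP exposure 15 min at 22 °C before imaging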
Assay: switch fluorescence ratio, 500 uM ATP over buffer (Cy3 cluster intensity, sum of 5 cycles each) (fold (ratio)); higher = stronger signal-on switching upon ATP binding; sequences stand for … in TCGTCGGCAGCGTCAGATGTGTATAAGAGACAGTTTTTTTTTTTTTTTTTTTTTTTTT…TC
Settings: aptamer strand: ATP DNA aptamer (quencher-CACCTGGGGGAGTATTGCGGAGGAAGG + anchor), 100 nM annealed; ATP concentration: 500 uM
experimental endpoint: switch fluorescence ratio
Numbers only.

Use these answered entries as a reference point.
>  <sequence chain>
TCGTAAAGAG

>  <value>
1.02

$$$$
>  <sequence chain>
AGGAGTTTGG

>  <value>
0.981

$$$$
>  <sequence chain>
TAGGTAAATC

>  <value>
1.01

$$$$
>  <sequence chain>
ATTATGGAAG

>  <value>
0.994

$$$$

Batch lookup, switch fluorescence ratio per entry.
1. TTGTGTTTGT
2. TTCGAATGTG
3. ATGGAATAAG
4. GTCACTATTG

stdout:
[1, 1.01, 0.998, 1.02]

Report switch fluorescence ratio for every entry below.
1. CCAAAAGGTT
2. GAATCTAGTG

stdout:
1.01
1.02

Field: switch fluorescence ratio. Fill in for each record below.
1. AGTTTTGGTG
2. TTCGTTTTTT
3. CCTTTTTGT
4. ATCAGGGAGT
5. CGTTTGGGTA
6. GATCTTGTTT

stdout:
1. 0.985
2. 0.985
3. 0.993
4. 1
5. 0.999
6. 0.976

State recorded switch fluorescence ratio for all listed sequences.
1. AGAAGGGTGG
2. GGCATATGCT
3. GTTGAAGGAC

stdout:
1. 0.992
2. 1.02
3. 0.996

Please give switch fluorescence ratio for each item listed below.
1. GAGGGATTCT
2. GATGAGGATG
3. GAAATTCGGG
4. TTTTTACTGC

stdout:
1. 0.99
2. 0.987
3. 0.978
4. 0.997

* * *

Answer each item with its documented switch fluorescence ratio.
System: ATP;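 further: ATP exposure 15 min at 22 °C before imaging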
Assay: switch fluorescence ratio, 500 uM ATP over buffer (Cy3 cluster intensity, sum of 5 cycles each) (fold (ratio)); higher = stronger signal-on switching upon ATP binding; sequences stand for … in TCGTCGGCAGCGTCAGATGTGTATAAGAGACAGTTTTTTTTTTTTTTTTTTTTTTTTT…TC
Details: aptamer strand: ATP DNA aptamer (quencher-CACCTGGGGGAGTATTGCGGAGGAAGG + anchor), 100 nM annealed; ATP concentration: 500 uM
Numbers only.

Below, 5 sequences whose answers are already recorded.
>  <sequence chain>
TTAAAGAAAT

>  <system name>
ATP;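 further: ATP exposure 15 min at 22 °C before imaging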

>  <value>
1.05

$$$$
>  <sequence chain>
TGTAACTGTG

>  <system name>
ATP;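 further: ATP exposure 15 min at 22 °C before imaging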

>  <value>
1.15

$$$$
>  <sequence chain>
CTATGGAAGG

>  <system name>
ATP;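 further: ATP exposure 15 min at 22 °C before imaging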

>  <value>
0.98

$$$$
>  <sequence chain>
TTGGTACTGA

>  <system name>
ATP;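 further: ATP exposure 15 min at 22 °C before imaging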

>  <value>
1.04

$$$$
>  <sequence chain>
TATGATGTCG

>  <system name>
ATP;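 further: ATP exposure 15 min at 22 °C before imaging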

>  <value>
1.01

$$$$

Here are 4 sequences. What values of switch fluorescence ratio were reported for them?
1. CGTTCTGAGT
2. TTATAAGGGA
3. CAATCTGCGC
4. TTTGGTGGTA

stdout:
1. 0.955
2. 0.977
3. 1.07
4. 0.984

I have 8 sequences here; please give me switch fluorescence ratio for each one.
1. AGGCCCGAGC
2. AAATCCCGCT
3. GATTAAAGTC
4. TTTCCCGGTG
5. AAAAAAGGTT
6. ATAGTTATTG
7. CAACGTTTTG
8. CAGTTGAACT

stdout:
[0.98, 1.08, 1.03, 2.13, 1.07, 1.01, 0.977, 1.02]

The following sequences each have a reported value; give each one's switch fluorescence ratio.
1. ACTAAAGTGC
2. GAGTACAGCT
3. CGATGGTGGC
4. GGGCTAGGAG
5. TCTTGTTTGG
6. AGCTCAATTA
7. ATTTGGAATT
8. CACTGCGTCT

stdout:
1: 1.01; 2: 1.01; 3: 1.07; 4: 0.987; 5: 0.994; 6: 1.02; 7: 1; 8: 1.07

# return switch fluorescence ratio for each item in the list
1. TCGGTTTTTA
2. TTTTATGTT
3. TTCCTGATGC
4. TCGGAACTTG
5. TAGGGATTGG
6. AAGGTCTGGT
7. TTCCGGGGGG
8. CAGGATTCTG

stdout:
[1, 0.978, 1.04, 1.01, 1.01, 0.985, 1.02, 1.03]

* * *

Tested on: ATP;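 further: ATP exposure 15 min at 22 °C before imaging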
Experiment: switch fluorescence ratio, 500 uM ATP over buffer (Cy3 cluster intensity, sum of 5 cycles each) (fold (ratio)); higher = stronger signal-on switching upon ATP binding; sequences stand for … in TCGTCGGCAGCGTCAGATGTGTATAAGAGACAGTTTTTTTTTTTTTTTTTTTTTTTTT…TC
Settings: aptamer strand: ATP DNA aptamer (quencher-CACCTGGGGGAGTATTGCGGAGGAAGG + anchor), 100 nM annealed; ATP concentration: 500 uM
Kindly state switch fluorescence ratio for each of the entries shown.
Answers are plain numbers.

>  <sequence chain>
ATGATTGCGT

>  <switch fluorescence ratio>
0.991

$$$$

Please state switch fluorescence ratio for every sequence in the list that follows.
1. AGTGCAAGTG
2. CGGGAGAGTT
3. TTCGGCCACG

stdout:
1: 0.972; 2: 0.996; 3: 1.01

Dear colleague, could you send me switch fluorescence ratio for each of the items below? Thanks.
1. AGAGCTGGGT
2. AATTTTGGAC
3. CGGGTACTTT
4. GGGGGTTGTG
5. TATTGAATGG
6. ATAGAGTTAG
7. TTAAACTTAG
8. CACGGCAGGG

stdout:
1. 1.02
2. 1.01
3. 1
4. 1
5. 0.972
6. 0.982
7. 0.992
8. 1.01

For the 2 sequences below, give their switch fluorescence ratio values.
1. GAGTCTTTTG
2. TATGGGGCAG

stdout:
1: 1.01; 2: 0.99

Would you mind giving switch fluorescence ratio for every sequence in the list below?
1. CTTACGGGTC
2. GGGTGGGCAG
3. GGCATTTGGT

stdout:
1: 0.99; 2: 1.01; 3: 0.993

* * *

Could you please report measured switch fluorescence ratio for the items listed next?
Test system: ATP;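 further: ATP exposure 15 min at 22 °C before imaging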
Assay: switch fluorescence ratio, 500 uM ATP over buffer (Cy3 cluster intensity, sum of 5 cycles each) (fold (ratio)); higher = stronger signal-on switching upon ATP binding; sequences stand for … in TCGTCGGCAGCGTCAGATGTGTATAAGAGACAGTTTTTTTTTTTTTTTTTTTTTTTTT…TC
Conditions: aptamer strand: ATP DNA aptamer (quencher-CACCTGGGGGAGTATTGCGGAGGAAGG + anchor), 100 nM annealed; ATP concentration: 500 uM
Give bare numbers.

Consider the reported switch fluorescence ratio for these sequences:
>  <sequence chain>
TTGAATTAAC

>  <switch fluorescence ratio>
1.03

$$$$
>  <sequence chain>
AACTAAATCT

>  <switch fluorescence ratio>
1.02

$$$$
>  <sequence chain>
GGCATACCGG

>  <switch fluorescence ratio>
0.936

$$$$

Give switch fluorescence ratio for each listed item.
1. CGGTTCGGAT
2. CGTTGTTGGA
3. TTAGGGGTCC
4. CAATGGGTAT
5. TTTGCTGACG
6. AATTAGTGGG

stdout:
[0.989, 1, 0.998, 0.978, 1.02, 0.995]

For each listed entry, give its switch fluorescence ratio.
1. GTTAAAATAC
2. CTTACTAGC
3. ATTAGAAGGG
4. CTCTGTGTTA

stdout:
[1.13, 1.02, 0.985, 1.06]
